Origin of the recorded values: patent US20220298257A1

Target: T1, full-length human CD22 fused with flag and Myc tags at the C-terminus, on HEK293 or K562 cells (human, UniProt P20273 20-847)
T1 construct: whole, on cells; also called CD22/K562; CD22/HEK293; not shown: C-terminal flag and Myc tags of the pCMV6-Entry vector
T1 sequence (looked up): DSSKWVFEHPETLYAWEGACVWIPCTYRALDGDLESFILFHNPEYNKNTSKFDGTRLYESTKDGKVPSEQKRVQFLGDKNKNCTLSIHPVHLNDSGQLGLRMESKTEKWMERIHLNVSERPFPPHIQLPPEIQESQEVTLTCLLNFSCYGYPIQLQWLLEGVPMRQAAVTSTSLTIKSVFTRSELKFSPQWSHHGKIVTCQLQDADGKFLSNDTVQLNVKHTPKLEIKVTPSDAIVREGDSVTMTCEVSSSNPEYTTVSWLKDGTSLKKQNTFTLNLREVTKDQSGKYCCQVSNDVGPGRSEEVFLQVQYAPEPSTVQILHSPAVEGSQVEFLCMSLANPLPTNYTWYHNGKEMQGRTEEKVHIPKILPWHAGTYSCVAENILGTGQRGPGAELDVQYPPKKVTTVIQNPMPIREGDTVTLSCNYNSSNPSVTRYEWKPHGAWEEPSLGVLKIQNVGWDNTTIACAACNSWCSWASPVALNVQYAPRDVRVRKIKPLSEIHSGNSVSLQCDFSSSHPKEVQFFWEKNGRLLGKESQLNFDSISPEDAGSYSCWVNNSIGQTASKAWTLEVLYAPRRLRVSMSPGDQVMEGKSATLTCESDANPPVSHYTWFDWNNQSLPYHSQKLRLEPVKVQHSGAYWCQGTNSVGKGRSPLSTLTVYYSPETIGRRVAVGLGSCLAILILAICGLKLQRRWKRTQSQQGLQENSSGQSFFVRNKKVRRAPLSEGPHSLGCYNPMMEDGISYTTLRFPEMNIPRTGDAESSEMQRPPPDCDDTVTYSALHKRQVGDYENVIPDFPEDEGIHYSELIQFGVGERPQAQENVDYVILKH
Experiment: FACS, scFv titrated on CD22-expressing cells, anti-His Alexa 488
Entries annotated with measured pEC50
Value format note: pEC50 is -log10 of concentration (mol/L); just state the number.

- binder: "EP160-E03 scFv (scFv, VH-VL orientation; not shown: C-terminal flag and 6xHIS tag) scFv: EVQLVQSGGGVVQPGKSLRLSCAASGFTFSSYGMHWVRQAPGKGLEWVAVIWYDGSNKYYADSVKGRFTISRDNSKNTLYLQMNSLRAEDTAVYYCARDGWTGFDYWGQGTTVTVSSGGGGSGGGGSGGGGSEIVLTQSPATLSVSPGEGVTLSCRASQSVSSNLAWYQQRPGQAPRLLIYGASIKATDVPDRFSGGGSGTDFTLSISNLQSEDFAVYYCQQYHTWPPVTFGGGTKVEIK"
  observable: "pEC50"
  observed-result: 8.17

Data point: EP35-D6 scFv (scFv, VH-VL orientation; not shown: C-terminal flag and 6xHIS tag) scFv: QVQLVQSGTEVKKPGASVKVSCKASGYTFTNNAITWVRQAPGQGLEWMGYISTSSDNINYAQKFRGRLTLTTDTSTGTAYMELSSLRSDDTATYYCARDGIFGGRDDPWGQGTLVTVSSGGGGSGGGGSGGGGSDIVMTQSPSSLSASVGDRVTITCQASQDISNYLNWYQQKPGKAPKLLIYDASNLETGVPSRFSGSGSETDFTITISSLQPEDIATYYCQQYDNLPLTFGGGTKVR ; pEC50 = 7.33
